# tested-system: T1, Boi2, P39969
# T1 sequence (P39969 32-116, looked up): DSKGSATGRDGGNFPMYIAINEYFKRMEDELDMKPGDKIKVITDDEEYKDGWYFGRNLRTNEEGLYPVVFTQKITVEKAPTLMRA
# test-name: SPOT array
# run-parameters: median of control spots 1161
outcome-measure: SPOT intensity

Example entries begin here.
binder: KRRTSLFPWLHKPGI
SPOT intensity: 0

binder: QHQQRQPKRPKRYSL
SPOT intensity: 4

binder: GSKSGPPPRPKKPST
SPOT intensity: 0

binder: SRYRRPLTLLLLKPF
SPOT intensity: 0

1. GTIARPLFLVVLFFI
2. VTHRLRISIPGITGR
Prompt: Would you mind telling me which has the lower recorded SPOT intensity between 1 and 2 ? Response format: the label of the selected entry.
Completion: 2
